- Tested on: Fibroblast
- Assay Overview: Multiplex assay against human fibroblast
- Type: toxicity, cell-based
- Condition Label: 24 h, 10 µM, compound concentration 10 uM, replicate 1
TRUE if Population Tubulin-Different-Phenotype (%) is below 40%. FALSE if not; exact matches included in FALSE.

compound=O=C1COc2nccc(-c3ccccc3F)c2CN1Cc1cc(C(F)(F)F)cc(C(F)(F)F)c1 label_class=FALSE
compound=C[C@H](NC(=O)c1c(C(F)F)nn(C)c1Oc1cccc(C(F)(F)F)c1)c1ccc(C(=O)O)cc1 label_class=TRUE
compound="COc1ccc2c(c1)C(C(=O)N(Cc1ccc(N(C)C)cc1)c1ccc(C(C)C)cc1)CCC2.Cl (centres undefined)" label_class=FALSE
compound=C[C@@H]1C[C@H]2[C@@H]3CCC4=CC(=O)C=C[C@]4(C)[C@@]3(F)[C@@H](O)C[C@]2(C)[C@@]1(O)C(=O)CO label_class=TRUE
compound=N#Cc1c(N)nc(SCc2csc(-c3ccc(Cl)cc3)n2)c(C#N)c1-c1ccc(OCCO)cc1 label_class=FALSE
compound="Cc1ccc(C(C)(O)c2nc3ccccc3s2)c(C)c1 (centres undefined)" label_class=TRUE
compound=CN(C)c1ccnc2sc3c(=O)n(N4CCCCCC4)cnc3c12 label_class=FALSE
compound=N[C@@]1(C(=O)O)CO[C@H]2[C@H](C(=O)O)[C@H]21 label_class=TRUE

###

- System: HEK-293T
- Assay Overview: Multiplex assay against HEK293T
- Format: toxicity, cell-based
- Condition Label: human, 24 h, 10 µM, compound concentration 10 uM, replicate 2
Below is a list of entries, each paired with its recorded Population Membrane Permeable-Phenotype (%) value.
Recorded Endpoint: Population Membrane Permeable-Phenotype (%)

molecule=C[C@H]1[C@H]2CC[C@H]3[C@@H]4CC=C5C[C@@H](N(C)C)CC[C@]5(C)[C@H]4CC[C@]23CN1C measured_target=HEK-293T reported_result=0
molecule=Cc1nc2ccc(Oc3ccc(F)cc3)cc2c(=O)n1C[C@H]1CCCN(C(C)C)C1.Cl measured_target=HEK-293T reported_result=0
molecule=c1cc(OCCCN2CCCCC2)ccc1CN1CCCCC1 measured_target=HEK-293T reported_result=2
molecule=O=C(NCC(=O)N1CC[C@H](N[C@H]2CC[C@@](O)(c3ccc(-c4ncccn4)cn3)CC2)C1)c1cccc(C(F)(F)F)c1 measured_target=HEK-293T reported_result=0
molecule=CC(C)(C)c1ccc(S(=O)(=O)Nc2ccc(Cl)cc2C(=O)c2cc[n+]([O-])cc2)cc1 measured_target=HEK-293T reported_result=0
molecule=CC(=O)NCCc1c(Cc2ccccc2)[nH]c2ccccc12 measured_target=HEK-293T reported_result=0
molecule="COc1ccc2c(c1)C(C(=O)N(Cc1ccc(N(C)C)cc1)c1ccc(C(C)C)cc1)CCC2.Cl (stereo not given)" measured_target=HEK-293T reported_result=0
molecule="Cl.Clc1ccc2nsnc2c1NC1=NCCN1 [TIZANIDINE HYDROCHLORIDE]" measured_target=HEK-293T reported_result=0
molecule=CCOc1c2c(c(OCC)c3ncccc13)CN(c1ccc(CS(=O)(=O)NC(=O)Cc3ccccc3OC)cc1C)C2=O measured_target=HEK-293T reported_result=1
molecule=CCNC1(C(N)=O)CCN(c2ncnc3c2nc(-c2ccccc2Cl)n3-c2ccc(Cl)cc2)CC1 measured_target=HEK-293T reported_result=0

###

Below is a list of entries, each paired with its recorded Population Membrane Permeable-Phenotype (%) value.
- Tested on: U2OS
- Assay Overview: Multiplex assay against U2OS
- Assay type: toxicity, cell-based
- Condition Label: human, 24 h, 10 µM, compound concentration 10 uM, replicate 2
Recorded Endpoint: Population Membrane Permeable-Phenotype (%)

compound=O=C(NCC(=O)N1CC[C@H](N[C@H]2CC[C@@](O)(c3ccc(-c4ncccn4)cn3)CC2)C1)c1cccc(C(F)(F)F)c1 reported_result=15
compound="Cc1ccc(C(C)(O)c2nc3ccccc3s2)c(C)c1 (centres undefined)" reported_result=3
compound="CNC[C@H](O)c1ccc(O)c(O)c1 [EPINEPHRINE]" reported_result=2
compound=Cc1nc2ccc(Oc3ccc(F)cc3)cc2c(=O)n1C[C@H]1CCCN(C(C)C)C1.Cl reported_result=22
compound=O=C(NCCO)c1cccc(-c2cc(Nc3ccc(OC(F)(F)F)cc3)ncn2)c1 reported_result=12
compound="COc1ccc2c(c1)C(C(=O)N(Cc1ccc(N(C)C)cc1)c1ccc(C(C)C)cc1)CCC2.Cl (centres undefined)" reported_result=45
compound=Cc1ccc(/C(=C\CN2CCCC2)c2ccccn2)cc1 reported_result=11
compound="CCCN1CCC[C@@H]2Cc3n[nH]cc3C[C@H]21.Cl [QUINPIROLE HYDROCHLORIDE]" reported_result=0
compound="CSc1ccccc1N1CCN(CCCCCC(=O)NC2CCCc3ccccc32)CC1.Cl (centres undefined)" reported_result=90

###

- System: Fibroblast
- Assay Overview: Multiplex assay against human fibroblast
- Type: toxicity, cell-based
- Condition Label: 24 h, 1 µM, compound concentration 1 uM, replicate 1
Below is a list of entries, each paired with its recorded Population Hoechst High Intensity Objects (%) value.
Recorded Endpoint: Population Hoechst High Intensity Objects (%)

compound=Cc1ccc(F)cc1C(=O)Nc1ccc(C(=O)N2Cc3cccn3Cc3ccccc32)c(Cl)c1 reported_result=1%
compound=O=C(O)c1cc2ccccc2c(Cc2c(O)c(C(=O)O)cc3ccccc23)c1O reported_result=3%
compound=COc1c(C)cc(NC(=O)c2nn(Cc3ccc(F)cc3)c3c2CN(C(=O)c2ccc[nH]2)C[C@]3(C)C(N)=O)cc1C reported_result=3%
compound="CCCN1CCC[C@@H]2Cc3n[nH]cc3C[C@H]21.Cl [QUINPIROLE HYDROCHLORIDE]" reported_result=1%
compound=CN(C)c1ccnc2sc3c(=O)n(N4CCCCCC4)cnc3c12 reported_result=3%
compound=O=C(NCC(=O)N1CC[C@H](N[C@H]2CC[C@@](O)(c3ccc(-c4ncccn4)cn3)CC2)C1)c1cccc(C(F)(F)F)c1 reported_result=2%
compound=CC(C)(C)c1ccc(S(=O)(=O)Nc2ccc(Cl)cc2C(=O)c2cc[n+]([O-])cc2)cc1 reported_result=0%
compound=Cc1nc2ccc(Oc3ccc(F)cc3)cc2c(=O)n1C[C@H]1CCCN(C(C)C)C1.Cl reported_result=3%

###

Below is a list of entries, each paired with its recorded Population Hoechst High Intensity Objects (%) value.
- Tested on: Fibroblast
- Assay Overview: Multiplex assay against human fibroblast
- Assay type: toxicity, cell-based
- Condition Label: 12 h, 10 µM, compound concentration 10 uM, replicate 2
Recorded Endpoint: Population Hoechst High Intensity Objects (%)

compound=CN(C)CCCc1cc(C(=O)Nc2ccc(-c3ccncc3)cc2)ccc1O.Cl.Cl reported_result=4%
compound="CC1(COc2ccc3c(c2)ncn3-c2ccc3cccc(N4CCC(N)CC4)c3n2)COC1 [CRENOLANIB]" reported_result=13%
compound="CCCC(CCC)C(=O)O [VALPROIC ACID]" reported_result=2%

###

- Test system: HEK-293T
- Assay Overview: Multiplex assay against HEK293T
- Assay type: toxicity, cell-based
- Condition Label: human, 48 h, 1 µM, compound concentration 1 uM, replicate 2
Recorded Endpoint: Population Mitotic Cells (%)

compound=Cc1nc2ccc(Oc3ccc(F)cc3)cc2c(=O)n1C[C@H]1CCCN(C(C)C)C1.Cl reported_result=39
compound=CSCC[C@H](NC=O)C(=O)N[C@@H](CC(C)C)C(=O)N[C@@H](Cc1ccccc1)C(=O)O reported_result=79
compound=Cc1ccc(-c2ccc(F)cc2COc2ccc(CCC(=O)O)cc2)cc1 reported_result=63
compound=COc1cc(C(=O)N(CCCc2ccccc2)Cc2ccc(CC(=O)O)cc2)cc(OC)c1C reported_result=73
compound="CN1CCN2c3ncccc3Cc3ccccc3C2C1 (configuration not stated)" reported_result=55
compound=Cc1ccc(F)cc1C(=O)Nc1ccc(C(=O)N2Cc3cccn3Cc3ccccc32)c(Cl)c1 reported_result=82
compound="COc1ccc2c(c1)C(C(=O)N(Cc1ccc(N(C)C)cc1)c1ccc(C(C)C)cc1)CCC2.Cl (configuration not stated)" reported_result=53
compound="CCCN1CCC[C@@H]2Cc3n[nH]cc3C[C@H]21.Cl [QUINPIROLE HYDROCHLORIDE]" reported_result=66
compound=N[C@@]1(C(=O)O)CO[C@H]2[C@H](C(=O)O)[C@H]21 reported_result=66
compound=O=C(NCC(=O)N1CC[C@H](N[C@H]2CC[C@@](O)(c3ccc(-c4ncccn4)cn3)CC2)C1)c1cccc(C(F)(F)F)c1 reported_result=72
compound=CN(C)c1ccnc2sc3c(=O)n(N4CCCCCC4)cnc3c12 reported_result=80
compound=C[C@H](NC(=O)c1c(C(F)F)nn(C)c1Oc1cccc(C(F)(F)F)c1)c1ccc(C(=O)O)cc1 reported_result=78
compound=Cc1ccc(/C(=C\CN2CCCC2)c2ccccn2)cc1 reported_result=62
compound=CC(=O)NCCc1c(Cc2ccccc2)[nH]c2ccccc12 reported_result=53
compound=CCCC(CCC)C(=O)O reported_result=63
compound=CCNC1(C(N)=O)CCN(c2ncnc3c2nc(-c2ccccc2Cl)n3-c2ccc(Cl)cc2)CC1 reported_result=68
compound=O=C(O)Cc1ccccc1Nc1c(Cl)cccc1Cl reported_result=66
compound=C[C@@H]1C[C@H]2[C@@H]3CCC4=CC(=O)C=C[C@]4(C)[C@@]3(F)[C@@H](O)C[C@]2(C)[C@@]1(O)C(=O)CO reported_result=72
compound="CSc1ccccc1N1CCN(CCCCCC(=O)NC2CCCc3ccccc32)CC1.Cl (configuration not stated)" reported_result=54
compound=N#Cc1c(N)nc(SCc2csc(-c3ccc(Cl)cc3)n2)c(C#N)c1-c1ccc(OCCO)cc1 reported_result=67
compound=CN1CCN(c2nc3cc(C(F)(F)F)ccc3n3cccc23)CC1.O=C(O)/C=C\C(=O)O.O=C(O)/C=C\C(=O)O reported_result=62
compound=O=C(O)c1cc2ccccc2c(Cc2c(O)c(C(=O)O)cc3ccccc23)c1O reported_result=51
compound="Cc1ccc(C(C)(O)c2nc3ccccc3s2)c(C)c1 (configuration not stated)" reported_result=65
compound=CC1(COc2ccc3c(c2)ncn3-c2ccc3cccc(N4CCC(N)CC4)c3n2)COC1 reported_result=52
compound=CCCn1c(=O)c2[nH]c(C3CCCC3)nc2n(CCC)c1=O reported_result=60
compound="O=S(=O)(c1ccccc1)c1cnc2c(N3CCNCC3)cccc2c1 [INTEPIRDINE]" reported_result=75
compound=COc1c(C)cc(NC(=O)c2nn(Cc3ccc(F)cc3)c3c2CN(C(=O)c2ccc[nH]2)C[C@]3(C)C(N)=O)cc1C reported_result=60
compound=Oc1c(CN2CCN(c3ccccn3)CC2)cc(Cl)c2cccnc12 reported_result=68
compound=C[C@H]1[C@H]2CC[C@H]3[C@@H]4CC=C5C[C@@H](N(C)C)CC[C@]5(C)[C@H]4CC[C@]23CN1C reported_result=63
compound=CN(C)CCCc1cc(C(=O)Nc2ccc(-c3ccncc3)cc2)ccc1O.Cl.Cl reported_result=78
compound=CC[C@H]1OC(=O)[C@H](C)[C@@H](O[C@H]2C[C@@](C)(OC)[C@@H](O)[C@H](C)O2)[C@H](C)[C@@H](O[C@@H]2O[C@H](C)C[C@H](N(C)C)[C@H]2O)[C@@]2(C)CC(C)=C(O2)[C@H](C)[C@@H](O)[C@]1(C)O reported_result=78
compound=COc1ccccc1N1CCN(CCCCNC(=O)c2ccc3ccccc3c2)CC1.Cl reported_result=53
